- assay_system: T1, human 5T4-His protein (human, UniProt Q13641 32-355)
- T1 construct: also called recombinant 5T4 protein (human 5T4-his tag); human 5T4 protein; not shown: His tag
- T1 sequence (looked up): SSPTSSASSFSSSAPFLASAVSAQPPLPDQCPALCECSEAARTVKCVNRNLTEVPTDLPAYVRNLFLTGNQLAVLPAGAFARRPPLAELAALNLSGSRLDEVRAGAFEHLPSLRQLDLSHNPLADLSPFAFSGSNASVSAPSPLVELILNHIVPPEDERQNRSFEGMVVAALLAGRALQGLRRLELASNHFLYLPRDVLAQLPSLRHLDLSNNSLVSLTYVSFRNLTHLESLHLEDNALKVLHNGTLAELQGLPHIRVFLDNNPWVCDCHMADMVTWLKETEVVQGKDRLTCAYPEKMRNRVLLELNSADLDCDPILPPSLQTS
- method_description: SPR Biacore, Protein A capture
Please use satisfied for koff under 0.0008 s⁻¹ and not satisfied for everything else, ties included.

Qu. Check if koff falls below 0.0008 s⁻¹ for Hu14G12-6 (antibody, V domains shown, humanized) VH: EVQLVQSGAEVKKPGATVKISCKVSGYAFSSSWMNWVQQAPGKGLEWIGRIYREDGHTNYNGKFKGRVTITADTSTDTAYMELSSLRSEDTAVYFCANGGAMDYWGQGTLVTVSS VL: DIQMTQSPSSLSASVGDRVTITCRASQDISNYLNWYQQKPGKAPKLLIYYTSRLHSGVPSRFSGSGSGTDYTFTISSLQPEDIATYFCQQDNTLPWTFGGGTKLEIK .
Ans. satisfied

Qu. Now this one: Hu14G12-4 (antibody, V domains shown, humanized) VH: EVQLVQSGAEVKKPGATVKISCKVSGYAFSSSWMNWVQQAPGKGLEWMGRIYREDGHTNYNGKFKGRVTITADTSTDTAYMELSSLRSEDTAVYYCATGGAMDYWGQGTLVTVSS VL: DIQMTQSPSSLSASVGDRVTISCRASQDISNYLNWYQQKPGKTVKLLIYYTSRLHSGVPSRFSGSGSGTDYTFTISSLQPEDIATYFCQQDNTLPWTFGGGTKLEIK
Ans. not satisfied

Qu. Now this one: Hu14G12-44 (antibody, V domains shown, humanized) VH: QVQLVQSGAEVKKPGASVKVSCKASGYAFSSSWMNWVRQAPGQGLEWMGRIYREDGHTNYNGKFKGRVTMTADKSTTTAYMELRSLRSDDTAVYYCANGGAMDYWGQGTLVTVSS VL: DIQMTQSPSSLSASVGDRVTITCRASQDISNYLNWYQQKPGKAPKLLIYYTSRLHSGVPSRFSGSGSGTDYTLTISSLQPEDIATYFCQQDNTLPWTFGGGTKVEIK
Ans. not satisfied

Qu. Now this one: Hu14G12-18 (antibody, V domains shown, humanized) VH: QVQLVQSGAEVKKPGSSVKVSCKASGGTFSSSWMNWVKQAPGQGLEWIGRIYREDGHTNYNGKFKGKATLTADKSTSTAYMELSSLRSEDTAVYFCANGGAMDYWGQGTTVTVSS VL: DIQMTQSPSSLSASVGDRVTITCRASQDISNYLNWYQQKPGKVPKLLIYYTSRLHSGVPSRFSGSGSGTDYTLTISSLQPEDVATYFCQQDNTLPWTFGGGTKLEIK
Ans. not satisfied

Qu. Now this one: Hu14G12-14 (antibody, V domains shown, humanized) VH: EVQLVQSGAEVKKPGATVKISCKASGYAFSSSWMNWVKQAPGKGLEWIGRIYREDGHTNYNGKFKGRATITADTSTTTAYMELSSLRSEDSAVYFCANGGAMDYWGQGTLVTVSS VL: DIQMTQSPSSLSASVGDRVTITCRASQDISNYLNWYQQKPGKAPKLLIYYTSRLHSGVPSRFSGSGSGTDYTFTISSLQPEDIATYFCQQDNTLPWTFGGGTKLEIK
Ans. satisfied
